# target or system: p110β/p85α (Homo sapiens, UniProt P42338)
# Sequence (P42338 whole entry): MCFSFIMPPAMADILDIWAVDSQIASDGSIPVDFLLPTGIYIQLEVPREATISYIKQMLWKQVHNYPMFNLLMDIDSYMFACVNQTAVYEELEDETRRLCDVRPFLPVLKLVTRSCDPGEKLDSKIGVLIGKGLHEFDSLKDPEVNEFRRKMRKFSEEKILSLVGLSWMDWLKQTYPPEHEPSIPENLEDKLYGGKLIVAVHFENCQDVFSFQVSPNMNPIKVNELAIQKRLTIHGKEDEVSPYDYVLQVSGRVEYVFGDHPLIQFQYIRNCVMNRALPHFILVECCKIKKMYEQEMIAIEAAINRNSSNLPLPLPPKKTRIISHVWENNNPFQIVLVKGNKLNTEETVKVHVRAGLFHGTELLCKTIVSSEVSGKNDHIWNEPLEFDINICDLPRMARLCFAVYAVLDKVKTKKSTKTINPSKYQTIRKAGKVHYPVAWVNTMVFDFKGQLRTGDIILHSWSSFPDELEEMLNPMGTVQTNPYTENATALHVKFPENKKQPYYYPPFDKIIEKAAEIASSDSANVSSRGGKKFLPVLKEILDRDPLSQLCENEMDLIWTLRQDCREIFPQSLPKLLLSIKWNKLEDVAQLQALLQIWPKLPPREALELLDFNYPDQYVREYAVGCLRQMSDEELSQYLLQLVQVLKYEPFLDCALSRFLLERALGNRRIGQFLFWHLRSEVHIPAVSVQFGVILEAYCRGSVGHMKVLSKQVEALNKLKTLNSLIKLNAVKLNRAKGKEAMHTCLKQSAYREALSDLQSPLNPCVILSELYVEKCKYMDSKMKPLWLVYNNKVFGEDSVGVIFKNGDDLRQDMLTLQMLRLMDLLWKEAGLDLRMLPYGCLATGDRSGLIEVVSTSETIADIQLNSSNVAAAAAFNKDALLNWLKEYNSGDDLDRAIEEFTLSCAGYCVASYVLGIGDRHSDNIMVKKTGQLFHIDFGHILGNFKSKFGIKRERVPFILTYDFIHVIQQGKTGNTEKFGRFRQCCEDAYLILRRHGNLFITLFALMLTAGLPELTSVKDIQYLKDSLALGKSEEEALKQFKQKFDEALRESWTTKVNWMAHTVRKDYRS
# Sequence (P27986 2-724 partner): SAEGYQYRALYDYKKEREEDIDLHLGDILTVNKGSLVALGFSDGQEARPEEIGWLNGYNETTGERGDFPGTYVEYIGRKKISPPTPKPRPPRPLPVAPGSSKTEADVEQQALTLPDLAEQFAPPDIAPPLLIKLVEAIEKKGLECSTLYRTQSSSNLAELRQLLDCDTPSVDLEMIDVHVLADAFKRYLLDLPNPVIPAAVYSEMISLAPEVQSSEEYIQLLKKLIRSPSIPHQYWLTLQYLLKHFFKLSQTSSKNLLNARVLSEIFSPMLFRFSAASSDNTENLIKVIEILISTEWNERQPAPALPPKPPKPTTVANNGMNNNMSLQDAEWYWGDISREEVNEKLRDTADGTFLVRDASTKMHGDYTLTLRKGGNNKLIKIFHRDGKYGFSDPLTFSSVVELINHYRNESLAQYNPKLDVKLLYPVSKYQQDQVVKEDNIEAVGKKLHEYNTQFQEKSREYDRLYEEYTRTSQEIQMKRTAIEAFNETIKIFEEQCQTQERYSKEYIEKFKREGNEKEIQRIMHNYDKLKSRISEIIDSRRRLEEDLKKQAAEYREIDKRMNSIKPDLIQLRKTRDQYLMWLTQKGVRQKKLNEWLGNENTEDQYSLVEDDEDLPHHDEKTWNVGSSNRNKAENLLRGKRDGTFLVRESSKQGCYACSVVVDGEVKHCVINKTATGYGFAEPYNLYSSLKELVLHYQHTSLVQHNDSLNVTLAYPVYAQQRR
# measurement description: Transcreener KINASE Assay, kinase inhibition of p110β/p85α
# test parameters: read-out: PI3Kβ IC50
pIC50: −log10 of the molar value.
observable: pIC50

Record excerpt, results attached:
compound | endpoint value
CO[C@H]1C[C@@H](c2nn3ccc(Cl)c3c(=O)n2-c2ccccc2)N(c2ncnc3[nH]cnc23)C1 [Compound 263] | 6.93
CC(=O)c1cnc(N)nc1NC(C)c1cc2ncc(Cl)n2c(=O)n1-c1ccccc1 (centres unmarked) [Compound 288] | 7.03
N#Cc1c[nH]c2ncnc(N3CCC[C@H]3c3nn4ccc(Cl)c4c(=O)n3CC(F)(F)F)c12 [Compound 67] | 6.73
N#Cc1ncc(-c2c[nH]c3ncnc(N4CC[C@H]4c4nn5ccc(Cl)c5c(=O)n4-c4ccccc4)c23)cn1 [Compound 103] | 7.34
N#Cc1c[nH]c2ncnc(N3CCC[C@H]3c3nn4ccc(Cl)c4c(=O)n3C3CCC3)c12 [Compound 162] | 6.86
Cc1nc(N)nc(N2C[C@H](C)[C@H]2c2nn3ccc(Cl)c3c(=O)n2-c2cccc(F)c2)c1C#N [Compound 461] | 7.27
C[S+]([O-])c1c[nH]c2ncnc(N3CCC[C@H]3c3nn4ccc(Cl)c4c(=O)n3-c3ccccc3)c12 (some centres unmarked) [Compound 197] | 6.55
O=c1c2c(Cl)ccn2nc([C@@H]2CCCN2c2ncnc3[nH]cnc23)n1-c1ccccc1 [Compound 26] | 7.04

A = N#Cc1c[nH]c2ncnc(N3C[C@H](F)C[C@H]3c3nn4ccc(Cl)c4c(=O)n3-c3ccccc3)c12 [Compound 48]
B = N#C[C@H]1C[C@@H](c2nn3ccc(Cl)c3c(=O)n2-c2cccc(F)c2)N(c2ncnc3[nH]cnc23)C1 [Compound 347]
IN: Given the listed records, identify the one among A and B with higher pIC50. // return label of chosen record
OUT: B
(B: 7.15, A: 6.30)

I = C[S@@+]([O-])c1c[nH]c2ncnc(N3CCC[C@H]3c3nn4ccc(F)c4c(=O)n3-c3ccccc3)c12 [Compound 397]
II = N#Cc1c[nH]c2ncnc(N3C[C@@H](F)C[C@H]3c3nn4ccc(Cl)c4c(=O)n3-c3cccc(F)c3)c12 [Compound 213]
IN: Given the listed records, identify the one among I and II with higher pIC50. // return label of chosen record
OUT: II
(II: 7.06, I: 5.63)

---

# target or system: p110γ (Homo sapiens)
# measurement description: Transcreener KINASE Assay, kinase inhibition of p110γ
# Type: biochemical
# test parameters: 1 uM test compound
observable: PI3Kγ IH % @ 1 uM (%)

Record excerpt, results attached:
molecule | target or system | unit label | endpoint value
CS(=O)(=O)[C@H]1C[C@@H](c2nn3ccc(Cl)c3c(=O)n2-c2ccccc2)N(c2ncnc3[nH]cc(C#N)c23)C1 | p110γ (Homo sapiens) | % | 88.6
CC(=O)c1n[nH]c2ncnc(N3CCC[C@H]3c3nn4ccc(Cl)c4c(=O)n3-c3ccccc3)c12 | p110γ (Homo sapiens) | % | 92.7
N#Cc1c[nH]c2ncnc(N3CC[C@H]3c3nn4cccc4c(=O)n3-c3ccccc3)c12 | p110γ (Homo sapiens) | % | 58.6

A = CC(Nc1ncnc2[nH]cc(F)c12)c1cc2ncc(Cl)n2c(=O)n1-c1ccccc1 (single isomer, unassigned) [Compound 451]
B = Cc1cccc(-n2c([C@@H]3CCCN3c3ncnc4[nH]cnc34)nn3ccc(Cl)c3c2=O)n1
IN: Given the listed records, identify the one among A and B with higher PI3Kγ IH % @ 1 uM. // return label of chosen record
OUT: B

I = C[C@H]1CN(c2ncnc3[nH]cnc23)C1c1nn2ccc(Cl)c2c(=O)n1-c1ccccc1 (stereo partly drawn)
II = Nc1ncc(C(F)(F)F)c(N2CCC[C@H]2c2nn3ccc(CO)c3c(=O)n2-c2ccccc2)n1
IN: Given the listed records, identify the one among I and II with higher PI3Kγ IH % @ 1 uM. // return label of chosen record
OUT: I
(I: 86.3%, II: 7.6%)

---

# target or system: p110γ (Homo sapiens, UniProt P48736)
# Sequence (P48736 whole entry): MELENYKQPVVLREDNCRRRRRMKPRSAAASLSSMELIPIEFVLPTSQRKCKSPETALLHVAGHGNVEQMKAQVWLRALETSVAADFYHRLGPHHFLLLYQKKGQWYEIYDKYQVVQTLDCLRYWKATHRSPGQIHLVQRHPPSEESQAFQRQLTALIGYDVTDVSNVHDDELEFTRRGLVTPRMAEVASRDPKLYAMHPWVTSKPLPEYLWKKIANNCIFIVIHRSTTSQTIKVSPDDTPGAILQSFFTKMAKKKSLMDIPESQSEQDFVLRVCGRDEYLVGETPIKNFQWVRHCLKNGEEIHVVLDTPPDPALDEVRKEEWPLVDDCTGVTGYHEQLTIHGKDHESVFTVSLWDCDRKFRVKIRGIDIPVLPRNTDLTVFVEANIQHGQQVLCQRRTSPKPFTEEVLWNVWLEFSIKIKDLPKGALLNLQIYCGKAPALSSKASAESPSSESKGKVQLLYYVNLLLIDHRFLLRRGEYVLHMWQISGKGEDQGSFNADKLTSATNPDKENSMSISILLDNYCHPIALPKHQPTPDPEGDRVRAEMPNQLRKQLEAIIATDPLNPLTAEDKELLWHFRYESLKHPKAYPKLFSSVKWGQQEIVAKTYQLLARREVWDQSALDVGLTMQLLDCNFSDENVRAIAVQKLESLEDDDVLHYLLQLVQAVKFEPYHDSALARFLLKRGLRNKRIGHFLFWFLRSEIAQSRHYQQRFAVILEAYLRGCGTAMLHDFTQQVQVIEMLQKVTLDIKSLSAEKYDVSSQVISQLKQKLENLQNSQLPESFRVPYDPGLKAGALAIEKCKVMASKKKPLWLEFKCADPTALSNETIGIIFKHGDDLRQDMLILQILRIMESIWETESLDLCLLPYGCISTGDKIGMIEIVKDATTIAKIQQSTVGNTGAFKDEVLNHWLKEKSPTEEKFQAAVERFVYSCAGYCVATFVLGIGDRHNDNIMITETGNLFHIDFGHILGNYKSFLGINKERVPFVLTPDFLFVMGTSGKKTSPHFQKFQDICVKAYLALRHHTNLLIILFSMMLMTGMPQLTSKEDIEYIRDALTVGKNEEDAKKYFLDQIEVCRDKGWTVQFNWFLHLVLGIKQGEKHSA
# measurement description: Transcreener KINASE Assay, kinase inhibition of p110γ
# Assay type: biochemical
# test parameters: 1 uM test compound
observable: PI3Kγ IH % @ 1 uM (%)

A = CCC(=O)c1cnc(N)nc1N1CC[C@H]1c1nn2ccc(Cl)c2c(=O)n1-c1ccccc1 [Compound 362]
B = CC(=O)c1c[nH]c2ncnc(N3CC(=O)C[C@H]3c3nn4ccc(F)c4c(=O)n3-c3ccccc3)c12 [Compound 445]
C = CC(=O)c1cnc(N)nc1N1CC(C)(C)[C@H]1c1nn2ccc(Cl)c2c(=O)n1-c1ccccc1 [Compound 485]
D = Cc1nc(N)nc(N2CC[C@H]2c2nn3c(C)cc(Cl)c3c(=O)n2-c2ccccc2)c1C#N [Compound 502]
IN: I would appreciate it if you could sort these 4 compounds by PI3Kγ IH % @ 1 uM, starting from the smallest number. # respond with the labels, arranged in the requested order
OUT: B, C, D, A
(B: 4.3%, C: 45.2%, D: 66.4%, A: 97.4%)

P = O=c1c2c(Cl)ccn2nc([C@@H]2C[S+]([O-])CN2c2ncnc3[nH]cnc23)n1-c1ccccc1 (some centres unmarked) [Compound 293]
Q = CC(=O)c1c[nH]c2ncnc(N[C@@H](C)c3cn4ccc(F)c4c(=O)n3-c3ccccc3)c12 [Compound 406]
R = Nc1nc(N2CC[C@H]2c2nn3ccc(Cl)c3c(=O)n2-c2ccccc2)n2ncc(Cl)c2n1 [Compound 314]
IN: Arrange the 3 compounds by rising PI3Kγ IH % @ 1 uM, starting with the smallest. # respond with the labels, arranged in the requested order
OUT: Q, R, P

I = Cc1nc(N)nc(N2C[C@H](C)[C@H]2c2nn3ccc(Cl)c3c(=O)n2-c2ccccc2)n1 [Compound 469]
II = N#Cc1c[nH]c2ncnc(N3CC[C@H]3c3nn4ccc(Cl)c4c(=O)n3Cc3ccccn3)c12 [Compound 60]
III = Nc1nc(N2CCC[C@H]2c2nn3ccc(Cl)c3c(=O)n2-c2ccccc2)ncc1C(F)(F)F [Compound 49]
IN: Arrange the 3 compounds by rising PI3Kγ IH % @ 1 uM, starting with the smallest. # respond with the labels, arranged in the requested order
OUT: III, II, I

---

# target or system: p110δ/p85α (Homo sapiens)
# Sequence (O00329 whole entry): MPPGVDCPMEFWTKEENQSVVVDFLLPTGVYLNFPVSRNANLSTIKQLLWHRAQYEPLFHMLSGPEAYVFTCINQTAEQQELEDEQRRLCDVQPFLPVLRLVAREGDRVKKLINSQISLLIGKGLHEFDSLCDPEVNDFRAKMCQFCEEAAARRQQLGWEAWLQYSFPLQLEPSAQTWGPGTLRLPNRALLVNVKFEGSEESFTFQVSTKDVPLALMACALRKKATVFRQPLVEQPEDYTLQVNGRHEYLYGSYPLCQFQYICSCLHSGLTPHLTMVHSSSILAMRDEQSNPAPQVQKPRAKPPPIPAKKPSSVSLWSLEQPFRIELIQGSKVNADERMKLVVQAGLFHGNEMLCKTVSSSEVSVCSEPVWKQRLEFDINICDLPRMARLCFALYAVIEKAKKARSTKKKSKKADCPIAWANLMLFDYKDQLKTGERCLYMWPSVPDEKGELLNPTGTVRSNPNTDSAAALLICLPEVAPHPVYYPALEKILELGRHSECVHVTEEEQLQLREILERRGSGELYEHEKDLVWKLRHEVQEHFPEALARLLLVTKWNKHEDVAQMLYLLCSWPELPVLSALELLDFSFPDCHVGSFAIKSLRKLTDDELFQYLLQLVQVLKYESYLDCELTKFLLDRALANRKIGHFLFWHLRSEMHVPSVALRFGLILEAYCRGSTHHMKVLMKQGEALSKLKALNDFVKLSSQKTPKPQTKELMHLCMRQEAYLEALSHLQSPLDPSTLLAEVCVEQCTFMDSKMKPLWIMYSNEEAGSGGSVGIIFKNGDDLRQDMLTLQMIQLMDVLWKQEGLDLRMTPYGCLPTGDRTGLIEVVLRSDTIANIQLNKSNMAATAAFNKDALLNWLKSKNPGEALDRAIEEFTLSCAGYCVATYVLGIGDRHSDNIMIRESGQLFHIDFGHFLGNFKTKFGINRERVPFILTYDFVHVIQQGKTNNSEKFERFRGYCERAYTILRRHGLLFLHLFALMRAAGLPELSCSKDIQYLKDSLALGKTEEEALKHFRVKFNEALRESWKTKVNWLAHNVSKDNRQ
# Sequence (P27986 whole entry partner): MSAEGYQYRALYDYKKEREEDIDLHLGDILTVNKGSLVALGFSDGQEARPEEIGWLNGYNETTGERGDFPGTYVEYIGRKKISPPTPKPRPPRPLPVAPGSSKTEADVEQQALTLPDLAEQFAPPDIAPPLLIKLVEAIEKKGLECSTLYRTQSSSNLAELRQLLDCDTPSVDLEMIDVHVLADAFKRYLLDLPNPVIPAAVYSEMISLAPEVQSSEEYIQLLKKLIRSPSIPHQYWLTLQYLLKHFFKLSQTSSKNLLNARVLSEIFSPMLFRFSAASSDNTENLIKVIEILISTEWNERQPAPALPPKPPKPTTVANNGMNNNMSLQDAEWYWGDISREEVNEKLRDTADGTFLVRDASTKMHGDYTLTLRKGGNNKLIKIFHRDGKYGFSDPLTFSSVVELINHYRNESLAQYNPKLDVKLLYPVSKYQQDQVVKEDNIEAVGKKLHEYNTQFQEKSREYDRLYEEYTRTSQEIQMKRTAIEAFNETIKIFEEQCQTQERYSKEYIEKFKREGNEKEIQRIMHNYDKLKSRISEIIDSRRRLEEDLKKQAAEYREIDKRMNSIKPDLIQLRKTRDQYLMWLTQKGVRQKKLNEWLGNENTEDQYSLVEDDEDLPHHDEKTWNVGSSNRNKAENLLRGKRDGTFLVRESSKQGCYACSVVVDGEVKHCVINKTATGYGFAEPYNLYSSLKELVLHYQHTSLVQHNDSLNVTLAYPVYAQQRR
# measurement description: Transcreener KINASE Assay, kinase inhibition of p110δ/p85α
# Format: biochemical
# test parameters: 1 uM test compound
observable: PI3Kδ IH % @ 1 uM (%)

molecule | target or system | PI3Kδ IH % @ 1 uM (%)
CO/N=C(\C)c1c[nH]c2ncnc(N3CCC[C@H]3c3nn4ccc(Cl)c4c(=O)n3-c3ccccc3)c12 [Compound 308] | p110δ/p85α (Homo sapiens) | 99.7
CS(=O)(=O)c1cccc(-n2c([C@@H]3CCCN3c3ncnc4[nH]cc(C#N)c34)nn3ccc(Cl)c3c2=O)c1 [Compound 192] | p110δ/p85α (Homo sapiens) | 98.5
COc1cccc(-n2c([C@@H]3CCN3c3ncnc(N)c3C#N)nn3ccc(Cl)c3c2=O)c1 [Compound 35] | p110δ/p85α (Homo sapiens) | 94.1

---

# target or system: p110δ/p85α (Homo sapiens)
# measurement description: Transcreener KINASE Assay, kinase inhibition of p110δ/p85α
# Format: biochemical
# test parameters: read-out: PI3Kδ IC50
observable: IC50 (nM)

molecule | unit label | endpoint value
CNc1ncnc(N2CCC[C@H]2c2nn3ccc(Cl)c3c(=O)n2-c2ccccc2)n1 | nM | 196
C[S+]([O-])c1c[nH]c2ncnc(N3CC[C@H]3c3nn4ccc(F)c4c(=O)n3-c3ccccc3)c12 (stereo partly drawn) | nM | 109

1 = C[C@H]1CN(c2nc(N)nc(N)c2C#N)C1c1nn2ccc(Cl)c2c(=O)n1-c1cccc(F)c1 (stereo partly drawn)
2 = N#Cc1c(N)ncnc1N1CC(F)(F)C[C@H]1c1nn2ccc(Cl)c2c(=O)n1-c1ccccc1
IN: Given the listed records, identify the one among 1 and 2 with higher IC50. // return label of chosen record
OUT: 2
(2: 5 nM, 1: 2 nM)

A = Cc1nc(N)nc(N2C[C@H](C)C2c2nn3ccc(F)c3c(=O)n2-c2ccccc2)c1C#N (stereo partly drawn)
B = CC(Nc1ncnc2[nH]cnc12)c1cc2ccc(Cl)n2c(=O)n1-c1ccccc1 (stereo not drawn)
IN: Given the listed records, identify the one among A and B with higher IC50. // return label of chosen record
OUT: B
(B: 3 nM, A: 1 nM)

A = Cc1ccn2nc([C@@H]3CCCN3c3nc(N)nc4[nH]cnc34)n(-c3ccccc3)c(=O)c12
B = COCCNC(=O)c1c[nH]c2ncnc(N3CCC[C@H]3c3nn4ccc(Cl)c4c(=O)n3-c3ccccc3)c12
C = N#Cc1c(N)ncnc1N1CC[C@H]1c1nn2ccc(Cl)c2c(=O)n1-c1ccccc1
D = CS(=O)(=O)c1cccc(-n2c([C@@H]3CCCN3c3ncnc4[nH]cc(C#N)c34)nn3ccc(Cl)c3c2=O)c1
IN: Arrange the 4 molecules by rising IC50, starting with the smallest. # respond with the labels, arranged in the requested order
OUT: A, D, B, C

I = C[S+]([O-])c1c[nH]c2ncnc(N3CCC[C@H]3c3nn4ccc(Cl)c4c(=O)n3-c3ccccn3)c12 (single isomer, unassigned)
II = N#Cc1cnc(N)nc1N1CC(=O)C[C@H]1c1nn2ccc(Cl)c2c(=O)n1-c1cccc(F)c1
IN: When the recorded IC50 values are compared, which is smaller: that of I or that of II ? // return label of chosen record
OUT: II
(II: 3 nM, I: 7 nM)
